Assay: solubility of p-methoxybenzoic acid in water
Format: physicochemical
measurement_label: solubility

- cpd_smiles: "COc1ccc(C(=O)O)cc1"
  observed_value: "~5000 µg/mL"
